target: OXA-23 (Acinetobacter baumannii, UniProt Q9L4P2); construct: hexahistidine (pOPINF, 3C-cleavable) (N, cleaved yes); made in house; host or cells: E. coli BL21(DE3); assay: FC5 fluorogenic β-lactamase inhibition assay, OXA-23; type: biochemical; details: read-out: IC50, nM (mean ± SD) for OXA-23; preincubation 60 min; FC5 substrate
Sequence (Q9L4P2 18-273): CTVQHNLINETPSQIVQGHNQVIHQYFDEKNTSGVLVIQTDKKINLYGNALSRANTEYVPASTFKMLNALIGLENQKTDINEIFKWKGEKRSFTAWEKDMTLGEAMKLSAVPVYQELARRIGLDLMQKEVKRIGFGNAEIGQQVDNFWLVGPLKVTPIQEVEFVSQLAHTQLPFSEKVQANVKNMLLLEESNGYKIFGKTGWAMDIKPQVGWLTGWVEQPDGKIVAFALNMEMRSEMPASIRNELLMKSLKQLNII
property.label: IC50

Value lookup for IC50; key = CC1(C)[C@H](C(=O)O)N2C(=O)C[C@H]2S1(=O)=O [Sulbactam, sulbactam]
> 200000 nM

###

target: AmpC from P. aeruginosa (Pseudomonas aeruginosa, UniProt P24735); construct: hexahistidine (pOPINF, 3C-cleavable) (N, cleaved yes); made in house; host or cells: E. coli BL21(DE3); test: FC5 fluorogenic β-lactamase inhibition assay, AmpC; assay type: biochemical; conditions: IC50, nM (mean ± SD) for AmpC, preincubation 10 min; FC5 substrate
Sequence (P24735 27-397): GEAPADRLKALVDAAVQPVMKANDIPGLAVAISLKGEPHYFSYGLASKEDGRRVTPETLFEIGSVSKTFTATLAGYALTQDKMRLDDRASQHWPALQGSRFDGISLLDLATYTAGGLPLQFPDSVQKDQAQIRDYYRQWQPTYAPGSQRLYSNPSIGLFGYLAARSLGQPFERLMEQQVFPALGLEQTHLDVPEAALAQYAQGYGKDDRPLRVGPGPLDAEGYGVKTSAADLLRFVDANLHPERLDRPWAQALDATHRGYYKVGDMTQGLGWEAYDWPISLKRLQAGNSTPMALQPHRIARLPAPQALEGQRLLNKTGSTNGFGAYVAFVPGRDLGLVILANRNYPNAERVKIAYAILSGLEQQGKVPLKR
property.label: IC50 (nM)
Field format: number, assumed nM, no unit text.

Value lookup for IC50; key = CC1(C)[C@H](C(=O)O)N2C(=O)C[C@H]2S1(=O)=O
42000
